Listing of pKi toward Prothrombin (Homo sapiens, UniProt P00734), each taken from a published source.
Answer as the number alone; pKi is minus log10 of concentration in mol/L.

Would you please look over these solved cases?
Molecule	Measured value
COc1ccc2ccc(C(=N)N)cc2c1-c1ccoc1	5.89
N=C(N)c1ccc2ccc(CN(CCCc3ccccc3)C(=O)c3cccc4ccccc34)cc2c1	5.92
CC(C)(C)OC(=O)N[C@@H](C(=O)N1CCC[C@H]1C(=O)NCC1CCc2n[nH]cc2C1)C(c1ccccc1)c1ccccc1 (stereo partly drawn)	6.28
CC1(C)CNc2c(cc(CC(=O)O)cc2S(=O)(=O)N[C@@H](Cc2nc3ccccc3s2)C(=O)N2CCC(CCF)CC2)C1	6.30
CC1=C(CC(=O)NCc2cc(Cl)ccc2CN)C(=O)N(NCc2cccc(C(=O)O)c2)CC1	8.34

Let us move to another entry and its pKi.
What reported pKi corresponds to CC(C)(C)OC(=O)N[C@H](Cc1ccc(Cl)c(Cl)c1)C(=O)N1CCC[C@H]1C(=O)NCC1CCc2n[nH]cc2C1 (stereo partly drawn) on Prothrombin (Homo sapiens, UniProt P00734)?
5.48
